PROCEDURE TEXT: protein stability index of a GFP-peptide fusion (GPS, HEK-293T) (PSI 1-6); higher = more stable;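 note: 24-mer peptide tiles fused after GFP, lentivirally expressed, FACS-sorted into six equal bins by GFP/DsRed ratio, decoded by Illumina sequencing, PSI is the read-weighted mean bin number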
CONDITION PARAMETERS: treatment: DMSO; c terminus: a fixed tail appended
So basically: protein stability index at 3 or higher? That is rule met. Lower than 3? That is rule not met.

{"SEQUENCE CONTENT": "NSEADQLGKIFDLIGLPPEDDWPR [CDK4]", "LABEL CLASS": "rule met"}
{"SEQUENCE CONTENT": "KSKGYGFVSFFNKWDAENAIQQMG [TIA1]", "LABEL CLASS": "rule not met"}
{"SEQUENCE CONTENT": "ADMLKQYFRDLPEPLMTNKLSETF [DLC1]", "LABEL CLASS": "rule not met"}
{"SEQUENCE CONTENT": "TKEEGLALAREFSCPFFETSAAYR [RIT1]", "LABEL CLASS": "rule met"}

query: Is protein stability index at least 3? Consider RDKARLLREKVEFLRSLRQMKQKV [NFE2L1]
result: rule not met

query: Is protein stability index at least 3? Consider VEGFRITLVDESDLYNWEVAIFGP [UBE2R2]
result: rule not met

query: Is protein stability index at least 3? Consider IAFDGVVGSGGRRDSTARRPRPQG [RTN2]
result: rule met

query: Is protein stability index at least 3? Consider DYSPYFKTIEDLRNKIIAATIENA [KRT16]
result: rule not met

query: Is protein stability index at least 3? Consider GNNEDVSFSRPADLDLIQSTPFKP [MFF]
result: rule met

query: Is protein stability index at least 3? Consider SSESSSDSDNSGGGGGGGGGGGGG [ANKRD17]
result: rule met

query: Is protein stability index at least 3? Consider YLPSTEFSVSSTSRRIYRCRNCIN [IQUB]
result: rule not met

query: Is protein stability index at least 3? Consider NLDANLAFASFTSGVVRIWDLRDQ [TLE6]
result: rule not met

query: Is protein stability index at least 3? Consider DSIKTEVSGCPEDLTVGRAPTADD [NOL4L]
result: rule met

query: Is protein stability index at least 3? Consider PCIPPGFRNLVADRVLNYTSWSQH [SPAG8]
result: rule not met

query: Is protein stability index at least 3? Consider PGQEKGSALEGRADTTTGSAAGPP [EHMT1]
result: rule met

query: Is protein stability index at least 3? Consider EVPTAAGALTPTPAPTTTTATREE [CLPTM1]
result: rule met

query: Is protein stability index at least 3? Consider ARFVSSGSGGGYGGGMRVCGFGGG [KRT15]
result: rule not met

query: Is protein stability index at least 3? Consider PCPEDASTPRPPEASSSPPEGSQD [TLE6]
result: rule met

query: Is protein stability index at least 3? Consider LAIDFIDEGRLLLEFDLLIFSFGQ [SOAT2]
result: rule met

query: Is protein stability index at least 3? Consider SFGPQPISRLEQCGINANDVKKLE [RAD51]
result: rule met

query: Is protein stability index at least 3? Consider EAFTLMDQNRDGFIDKEDLKDTYA [MYL5]
result: rule met

----------
PROCEDURE TEXT: protein stability index of a GFP-peptide fusion (GPS, HEK-293T) (PSI 1-6); higher = more stable
CONDITION PARAMETERS: treatment: MLN4924 1 uM, 8 h; c terminus: a fixed tail appended
So basically: protein stability index at 4 or higher? That is y. Lower than 4? That is n.

{"SEQUENCE CONTENT": "APAQRATRGFLRSPSSDLDTDAEG [RETREG3]", "LABEL CLASS": "y"}

query: Is protein stability index at least 4? Consider WTVANMEEIKKLTTDPDLILEVLR [LARP4]
result: n

query: Is protein stability index at least 4? Consider EEEEEEEDEDDDSADMDESDEDDE [FBXO3]
result: y

query: Is protein stability index at least 4? Consider VCLMGHERRQTLNLISLLALRVLA [TENT5C]
result: n

query: Is protein stability index at least 4? Consider SIDFNKDGHIDINEFLEAFRLVEK [PPEF2]
result: n

Hey, just so you know, these numbers are from the supplement of paper PMC10567573.
